Molecular target: urease enzyme (Canavalia ensiformis, UniProt P07374)
Sequence (P07374 whole entry, looked up): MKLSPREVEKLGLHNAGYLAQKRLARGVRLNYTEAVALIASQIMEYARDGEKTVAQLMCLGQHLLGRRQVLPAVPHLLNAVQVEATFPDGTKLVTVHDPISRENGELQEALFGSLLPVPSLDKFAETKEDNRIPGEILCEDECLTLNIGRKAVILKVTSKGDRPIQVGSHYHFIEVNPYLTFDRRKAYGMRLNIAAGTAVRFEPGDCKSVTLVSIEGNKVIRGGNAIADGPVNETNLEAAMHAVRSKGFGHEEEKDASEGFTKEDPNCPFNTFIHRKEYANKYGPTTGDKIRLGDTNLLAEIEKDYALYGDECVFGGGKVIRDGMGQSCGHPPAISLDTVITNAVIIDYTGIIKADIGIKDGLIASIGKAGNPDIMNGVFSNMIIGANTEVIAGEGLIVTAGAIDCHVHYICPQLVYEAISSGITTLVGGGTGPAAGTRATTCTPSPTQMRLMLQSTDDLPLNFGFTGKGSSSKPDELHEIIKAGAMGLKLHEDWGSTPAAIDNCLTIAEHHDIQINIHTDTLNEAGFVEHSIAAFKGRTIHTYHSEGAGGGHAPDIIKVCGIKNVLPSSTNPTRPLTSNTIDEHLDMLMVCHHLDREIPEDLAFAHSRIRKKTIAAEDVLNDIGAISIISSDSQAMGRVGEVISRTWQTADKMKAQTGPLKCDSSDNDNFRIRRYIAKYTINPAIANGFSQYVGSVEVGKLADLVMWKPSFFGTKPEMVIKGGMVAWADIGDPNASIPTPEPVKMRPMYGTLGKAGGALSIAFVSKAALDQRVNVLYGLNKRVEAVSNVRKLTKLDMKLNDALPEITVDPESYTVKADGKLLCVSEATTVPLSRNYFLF
Assay: biochemical
Assay type: biochemical
Protocol: First, 5 μL of the test compounds were added to the reaction mixtures, which also contained 25 μL of enzyme solution and 55 μL of buffer containing 100 mM urea, then the mixtures were incubated in 96-well plates at 30 °C for 15 min (0.5 mM concentration). […] Urease activity was determined by measuring ammonia generation using Weatherburn’s indophenol method. […] Using a microplate reader, rising absorbance at 630 nm was observed after 50 min (Molecular Devices, San Jose, CA, USA). […]
experimentalReadout: pIC50
Value format note: pIC50 is -log10 of concentration (mol/L); just state the number.

Illustrative cases are given below, each with its answer.
{"molecule": "COc1ccccc1C(=O)n1c(CSc2nnc3c4cc([N+](=O)[O-])ccc4n(C(=O)c4ccccc4OC)c3n2)nc2ccccc21 [analog 4]", "pIC50": 4.49}
{"molecule": "O=C(c1cc(O)ccc1O)n1c(CSc2nnc3c4cc([N+](=O)[O-])ccc4n(C(=O)c4cc(O)ccc4O)c3n2)nc2ccccc21 [analog 6]", "pIC50": 5.17}
{"molecule": "Cc1cccc(C(=O)n2c3ccc([N+](=O)[O-])cc3c3nnc(SCc4nc5ccccc5o4)nc32)c1 [analog 19]", "pIC50": 4.46}

Ask: Respond only with pIC50 recorded for O=C(c1ccc(O)cc1)n1c(CSc2nnc3c4cc([N+](=O)[O-])ccc4n(C(=O)c4ccc(O)cc4)c3n2)nc2ccccc21 [analog 12]
Reply: 4.84

Ask: Consider the molecule O=C(c1ccc(O)cc1O)n1c(CSc2nnc3c4cc([N+](=O)[O-])ccc4n(C(=O)c4ccc(O)cc4O)c3n2)nc2ccccc21 [analog 2] and give its recorded pIC50.
Reply: 5.72

Ask: # return recorded pIC50 for entry O=C(c1cccc([N+](=O)[O-])c1)n1c(CSc2nnc3c4cc([N+](=O)[O-])ccc4n(C(=O)c4cccc([N+](=O)[O-])c4)c3n2)nc2ccccc21 [analog 11]
Reply: 4.58

Ask: Identify measured pIC50 corresponding to O=C(c1cc(O)cc(O)c1)n1c(CSc2nnc3c4cc([N+](=O)[O-])ccc4n(C(=O)c4cc(O)cc(O)c4)c3n2)nc2ccccc21 [analog 3]
Reply: 5.68

###

Documented pIC50 across a set of molecules
biological target: UniProt:P07374; test: biochemical; type: biochemical
Convention used: pIC50 is expressed as -log10 of the molar concentration.

For orientation, consider the following solved cases.
{"itemSmiles": "O=C(c1ccc(O)c(O)c1)n1c(CSc2nnc3c4cc([N+](=O)[O-])ccc4n(C(=O)c4ccc(O)c(O)c4)c3n2)nc2ccccc21", "measuredResult": 6.05}
{"itemSmiles": "Cc1ccccc1C(=O)n1c2ccc([N+](=O)[O-])cc2c2nnc(SCc3nc4ccccc4o3)nc21", "measuredResult": 4.44}
{"itemSmiles": "COC(=O)c1ccc(C(=O)n2c3ccc([N+](=O)[O-])cc3c3nnc(SCc4nc5ccccc5o4)nc32)cc1", "measuredResult": 4.62}
{"itemSmiles": "O=C(c1ccccc1O)n1c2ccc([N+](=O)[O-])cc2c2nnc(SCc3nc4ccccc4o3)nc21", "measuredResult": 5.42}
{"itemSmiles": "O=C(c1cccc(Cl)c1)n1c2ccc([N+](=O)[O-])cc2c2nnc(SCc3nc4ccccc4o3)nc21", "measuredResult": 4.65}

Ask: Tell me its pIC50 given O=C(c1c(O)cc(O)cc1O)n1c(CSc2nnc3c4cc([N+](=O)[O-])ccc4n(C(=O)c4c(O)cc(O)cc4O)c3n2)nc2ccccc21 as the entry.
Reply: 6.70

Ask: # return recorded pIC50 for input O=C(c1ccc(Cl)cc1)n1c2ccc([N+](=O)[O-])cc2c2nnc(SCc3nc4ccccc4o3)nc21
Reply: 5.01
